I'd be grateful if you could share measured protein stability index for these entries.
B1: CHCHD6 (parent)
chain: MYKLSSEQFHEAASKMESTIKPRR

Variants of: B1
test: protein stability index of a GFP-peptide fusion (GPS, HEK-293T) (PSI 1-6); higher = more stable;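 note: lentivirally expressed fusions sorted by FACS into six bins by GFP to DsRed ratio, PSI derived from sequencing read proportions per bin multiplied by bin number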
details: c terminus: a fixed tail appended
Numbers only.

{"chainSequence": "MYKLSSEQFHEAASKMESTIKPRE", "protein stability index": 3.74}

Report protein stability index for every entry below.
1. MYKLSSESFHEAASKMESTIKPRR
2. MYKLSSEQFHEAASAMESTIKPRR

Result:
1. 3.74
2. 3.49
